FACS signal values by entry
System Name: human CLDN6 fused to GFP, expressed on engineered HEK293T cells (human) (UniProt P56747)
Assay: FACS, 293T clone with human CLDN6, 0.3 ug Ab

[
  {
    "Binder": "AB3-chim (antibody, V domains shown) VH: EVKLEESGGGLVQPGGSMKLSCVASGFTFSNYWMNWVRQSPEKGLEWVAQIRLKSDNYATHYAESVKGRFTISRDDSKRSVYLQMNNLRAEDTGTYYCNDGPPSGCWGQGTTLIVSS VL: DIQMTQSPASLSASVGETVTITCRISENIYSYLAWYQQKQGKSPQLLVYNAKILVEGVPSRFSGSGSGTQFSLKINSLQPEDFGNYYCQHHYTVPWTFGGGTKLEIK",
    "FACS signal": 267000
  }
]

Okay, next one:
IN: Which value of FACS signal has been reported for AB3-5 (antibody, V domains shown) VH: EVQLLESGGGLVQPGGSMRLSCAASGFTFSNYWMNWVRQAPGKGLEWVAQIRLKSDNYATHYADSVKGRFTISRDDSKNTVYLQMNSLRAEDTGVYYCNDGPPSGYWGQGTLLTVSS VL: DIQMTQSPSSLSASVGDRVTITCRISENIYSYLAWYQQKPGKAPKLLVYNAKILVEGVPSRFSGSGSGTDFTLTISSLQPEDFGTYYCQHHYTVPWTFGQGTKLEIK in the records?
OUT: 13300
